phosphorylation enrichment overview
Tested on: c-Src
Assay: phosphorylation enrichment, bacterial display (enrichment ratio); higher = better substrate or ligand; peptides without Tyr show the background
MEASUREMENT TYPE: phosphorylation enrichment

>>> assay_value("VITDFYVDMKF [MPP4_Y567_YF]")
0.503
>>> assay_value("FRVAGYETQGG [TIA1_Y383_YF]")
0.463
>>> assay_value("QTEAPYRFIYM [PTPN11_Y511_Q510P]")
1.93
>>> assay_value("IEDPFYGNDSD [ACP1_Y133_YF]")
0.75
>>> assay_value("KELSNYKHLTL [SLIT2_Y776]")
0.368
>>> assay_value("EFKKKYSDADI [CKAP5_Y1860_YF]")
0.334
>>> assay_value("NDQANYLLNTD [ADA_Y290_S291L]")
0.468
>>> assay_value("ADKAAYLQSLN [MYH2_Y389]")
0.45
>>> assay_value("AHAGEYGAVAL [HBA1_Y25_E28V]")
2.95
>>> assay_value("DQNVEYKGTVS [FHL1_Y117_W122S]")
0.444
>>> assay_value("AACQHYGVHTC [NR4A2_Y275_R278H]")
0.345
>>> assay_value("INITIYGKTFR [EFHC1_Y177]")
0.508
>>> assay_value("FSVDSYDSSVR [KCNQ1_Y461_G460S]")
0.474
>>> assay_value("EKLQQYIAPGM [EPHB3_Y600]")
0.412
>>> assay_value("EVTRLYGSVCD [TC2N_Y154_K151T]")
2.77
>>> assay_value("DSSIRYLQEIH [FGG_Y135_Y140H]")
0.347
>>> assay_value("EPTPGYEVGQR [TSC2_Y1788]")
0.507
>>> assay_value("AGQKDYDRLRP [RAC3_Y64_E62K]")
0.36
>>> assay_value("EALDFYGEVRI [PTEN_Y155_T160I]")
1.44
>>> assay_value("PLQNTYNFNVL [SLC4A1_Y553_K551N_YF]")
2.52
>>> assay_value("ATQDDYVLEVR [PTPRZ1_Y2179]")
0.601
>>> assay_value("HFMKLYEEKTG [PARP1_Y618]")
0.425
>>> assay_value("IGRHAYGDQYR [IDH1_Y135]")
0.381
>>> assay_value("NYADPYRQLPY [CTNND2_Y503_Q507P]")
0.827
>>> assay_value("GSCQEYTGAPY [NAXD_Y85_G81S]")
0.505
>>> assay_value("DRLASYQDKVR [KRT12_Y139_L140Q]")
0.41
>>> assay_value("QDDYSYPSRQM [LDLR_Y847_G844D]")
1.02
>>> assay_value("KVMANYMFKAG [MAML2_Y513_YF]")
0.414
>>> assay_value("MPAVTYTLAMR [MEGF10_Y895_P897L]")
0.503

----------
Tested on: Fer (mouse)
Assay: phosphorylation enrichment, bacterial display (enrichment ratio); higher = better substrate or ligand; peptides without Tyr show the background
phosphorylation enrichment overview
MEASUREMENT TYPE: phosphorylation enrichment

>>> assay_value("IKGIRYLHHQG [GUCY2D_Y656_R660Q]")
0.417
>>> assay_value("KASRKYFAMKI [AKT3_Y173_G171R_YF]")
0.389
>>> assay_value("FPQARYHWLVL [APTX_Y214_K211Q_YF]")
0.539
>>> assay_value("EAIMTYVSSFY [ACTN4_Y260_K255E]")
0.445
>>> assay_value("VLPIDYFFPPQ [AR_Y552_YF]")
0.35
>>> assay_value("KTNVSYCGALD [CACNB4_Y103]")
0.46
>>> assay_value("CSRHFYQLTKL [AR_Y858_R856H]")
0.615

----------
phosphorylation enrichment overview
Test system: Fer (mouse)
Experiment: phosphorylation enrichment, bacterial display (enrichment ratio); higher = better substrate or ligand; peptides without Tyr show the background
MEASUREMENT TYPE: phosphorylation enrichment

>>> assay_value("LQLLGHRPVFS [CHST6_Y358_Y358H_YF]")
0.817
>>> assay_value("QITQVCGFYDE [PPP2CA_Y127_Y127C]")
0.856
>>> assay_value("DLAAQYTTVGR [SGSH_Y240]")
0.382
>>> assay_value("TTSQLYDAVPI [PDPK1_Y9]")
19.6
>>> assay_value("KVGPGYLGSRG [RET_Y826_G830R]")
0.328
>>> assay_value("EKHGQYLIGHG [EPHB4_Y581_D576E]")
0.381
>>> assay_value("SRGRQYQELPR [KCNH2_Y1009]")
0.349

----------
Molecular target: SHP2-C SH2;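 also: peptide library displayed on the E. coli surface as eCPX fusions, selected cells deep-sequenced, score is each peptide's frequency after selection divided by its frequency in the input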
Experiment: SH2 binding enrichment of the phosphorylated peptide, bacterial display (enrichment ratio); higher = better substrate or ligand; peptides without Tyr show the background
SH2 binding enrichment overview
MEASUREMENT TYPE: SH2 binding enrichment

>>> assay_value("LRVHSYKSMQP [DRC7_Y516]")
0.957
>>> assay_value("IENKLCGMSDP [RET_Y1062_Y1062C]")
0.777
>>> assay_value("DALDNYVIRGV [PCCA_Y473]")
0.556
>>> assay_value("ARDVIYIIIPA [FRKtide_2014]")
2.09
>>> assay_value("LPEENYQVLCF [ARHGAP1_Y365_R369C]")
0.49
>>> assay_value("PNAFIYVVQLP [L1CAM_Y420_A415P_YF]")
0.768
>>> assay_value("CDFKKYGKGLR [ZNF445_Y433_Y428C_YF]")
0.934
>>> assay_value("MPAVTYTLAMR [MEGF10_Y895_P897L]")
3.33
>>> assay_value("LDPDSYNVFEN [FOXC1_Y159_M161V]")
0.752
>>> assay_value("FSCLPYGRLAF [SLC52A2_Y305_YF]")
0.538
>>> assay_value("SKDQIYPMKLK [RANBP17_Y823]")
0.764
>>> assay_value("WASQRYGRELR [BAD_Y110_A107S]")
0.504
>>> assay_value("RQEEEYKRFSE [SFSWAP_Y133_L136F]")
0.66
>>> assay_value("SVTCTYSPAFN [TP53_Y126_L130F]")
0.646
>>> assay_value("QMVGMYAFSYM [AVPR2_Y124_S126F]")
0.651
>>> assay_value("NPQKSYFICLF [WAS_Y83_R86C_YF]")
1.03
>>> assay_value("FRASFYRRGDR [LTK_Y677_YF]")
0.471
>>> assay_value("RSDEDYLCREE [POR_Y573_Y575C]")
0.749
>>> assay_value("QQLVAYYSKHT [SRC_Y232_A237T]")
1.48
>>> assay_value("LISVSYDDWDF [GRIN2A_Y281_YF]")
0.797
>>> assay_value("FADIAYNYHHG [PAH_Y166_R169H]")
0.654
>>> assay_value("LQFKNYQQLFD [MAN2A1_Y442]")
0.784
>>> assay_value("KRYRIYHLATS [BRCA2_Y3009]")
0.493
>>> assay_value("SVKVYYKKCWS [EPHA7_Y202]")
0.521
>>> assay_value("QRPYVYYYSYL [PTEN_Y176_R173P]")
1.14
>>> assay_value("GSSKIYFLHAD [TLR5_Y108_P112A]")
1.19
>>> assay_value("TEQDPSNNIVR [MMUT_Y364_Y364S]")
0.863
>>> assay_value("MMVGAYSSLEG [ECPAS_Y470_T472S]")
0.77
>>> assay_value("SEKISYVYMKR [SSX7_Y48_L43S]")
3.87

----------
Target: Fyn (UniProt P06241)
Sequence (P06241 whole entry, looked up): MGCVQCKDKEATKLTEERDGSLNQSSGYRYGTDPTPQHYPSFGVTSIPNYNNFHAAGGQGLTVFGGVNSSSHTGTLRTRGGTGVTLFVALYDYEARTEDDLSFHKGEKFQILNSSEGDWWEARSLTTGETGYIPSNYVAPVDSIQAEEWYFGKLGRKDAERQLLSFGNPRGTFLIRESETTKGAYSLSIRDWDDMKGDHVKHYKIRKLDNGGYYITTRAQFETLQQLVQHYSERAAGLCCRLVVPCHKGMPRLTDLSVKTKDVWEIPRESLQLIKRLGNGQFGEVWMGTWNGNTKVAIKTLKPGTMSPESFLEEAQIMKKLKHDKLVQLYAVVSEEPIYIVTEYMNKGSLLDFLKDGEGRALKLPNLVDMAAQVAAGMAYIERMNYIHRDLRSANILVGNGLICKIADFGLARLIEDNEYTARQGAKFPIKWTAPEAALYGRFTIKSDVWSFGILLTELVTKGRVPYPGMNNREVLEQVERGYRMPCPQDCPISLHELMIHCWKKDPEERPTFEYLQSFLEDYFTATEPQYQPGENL
Experiment: phosphorylation enrichment, bacterial display (enrichment ratio); higher = better substrate or ligand; peptides without Tyr show the background
MEASUREMENT TYPE: phosphorylation enrichment

>>> assay_value("ASLEAYCKHKY [RXRA_Y403]")
0.503
>>> assay_value("RRERPYGGGGG [FUS_Y526]")
0.471
>>> assay_value("NALVQYQEMEK [BBS4_Y395_A393V]")
0.53
>>> assay_value("VEDQFYRVDCF [FHL1_Y208_C209R_YF]")
0.693
>>> assay_value("VTQEQYELHCE [CBL_Y368_Y371H]")
0.576
>>> assay_value("VEDDMYRKTCT [XPA_Y257_L252V]")
0.602
>>> assay_value("IEDPFYGNDSD [ACP1_Y133_YF]")
0.556

----------
Biological target: Hck (UniProt P08631)
Sequence (P08631 whole entry, looked up): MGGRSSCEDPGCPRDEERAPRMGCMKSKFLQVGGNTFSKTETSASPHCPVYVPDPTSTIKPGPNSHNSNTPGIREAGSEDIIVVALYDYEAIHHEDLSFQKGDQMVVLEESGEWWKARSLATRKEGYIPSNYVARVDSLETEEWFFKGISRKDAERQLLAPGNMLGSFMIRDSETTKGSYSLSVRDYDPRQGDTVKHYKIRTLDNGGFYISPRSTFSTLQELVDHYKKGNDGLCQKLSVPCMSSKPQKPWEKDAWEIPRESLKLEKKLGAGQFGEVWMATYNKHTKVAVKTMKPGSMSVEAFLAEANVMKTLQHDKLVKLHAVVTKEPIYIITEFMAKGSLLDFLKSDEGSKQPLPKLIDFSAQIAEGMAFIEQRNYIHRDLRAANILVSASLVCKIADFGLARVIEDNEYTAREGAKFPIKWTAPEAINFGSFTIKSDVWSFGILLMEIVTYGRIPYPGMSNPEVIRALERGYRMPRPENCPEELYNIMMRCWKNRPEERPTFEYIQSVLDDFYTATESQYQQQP
Experiment: phosphorylation enrichment, bacterial display (enrichment ratio); higher = better substrate or ligand; peptides without Tyr show the background
MEASUREMENT TYPE: phosphorylation enrichment

>>> assay_value("FYVVRYCWLRR [MPZ_Y181]")
0.567
>>> assay_value("KWHREYNSKFV [RICTOR_Y835_YF]")
0.371
>>> assay_value("LRVHSYKSMQP [DRC7_Y516]")
0.684
>>> assay_value("NLRQQYNSPQE [UMPS_Y432_G429R]")
0.451
>>> assay_value("VGSIEYLKREW [KCNMA1_Y885]")
0.511
>>> assay_value("RIGRKCKKVRF [F8_Y442_Y442C]")
0.52
>>> assay_value("RRIHRYRGHLW [VHL_Y112_S111R]")
0.462

These data points were gathered from the supplement of paper PMC10065799.
